System: P. acnes (MicroBiologics, ATCC #11827)
protocol: Minimal inhibitory concentration (MIC) against P. acnes, serial dilution in thioglycollate broth
Assay type: cell-based, Propionbacterium acnes
condition.summary: anaerobic incubation in thioglycollate broth, 84 hours
# MIC (%) listing for each entry below

| compound | MIC (%) |
| --- | --- |
| O=C(/C=C/c1ccc(O)c(O)c1)O[C@H](Cc1ccc(O)c(O)c1)C(=O)O | 0.003 |
| O=c1c(O)c(-c2ccc(O)c(O)c2)oc2cc(O)cc(O)c12 | 0.003 |
| Oc1cc(Cl)ccc1Oc1ccc(Cl)cc1Cl [T, triclosan, reference compound] | 0.4 |
| O=C(O)c1ccccc1O [SA, 2-Hydroxybenzoic acid, reference compound] | 2 |

All values here come from patent US20080070875A1.
